Target: T1, human GPRC5D (human, UniProt Q9NZD1 1-345)
T1 construct: Full length, on stably transfected cells (HEK293-hGPRC5D, CHO-hGPRC5D); Also used here for the endogenous GPRC5D of the GPRC5D+ myeloma lines MM.1R, MM.1S and NCI-H929; also called hGPRC5D; G-protein-coupled receptor family C group 5 member D
T1 sequence (Q9NZD1 whole entry): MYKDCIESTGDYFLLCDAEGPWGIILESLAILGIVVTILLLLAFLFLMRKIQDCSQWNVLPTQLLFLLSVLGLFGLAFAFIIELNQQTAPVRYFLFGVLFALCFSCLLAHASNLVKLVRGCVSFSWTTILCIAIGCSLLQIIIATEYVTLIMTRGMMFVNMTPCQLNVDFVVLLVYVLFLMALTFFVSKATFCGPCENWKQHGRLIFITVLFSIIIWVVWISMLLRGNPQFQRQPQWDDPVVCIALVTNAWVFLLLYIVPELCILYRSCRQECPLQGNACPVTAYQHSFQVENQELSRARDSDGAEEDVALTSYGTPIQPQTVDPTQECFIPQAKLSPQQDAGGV
Assay: flow cytometry on CHO-hGPRC5D cells
TEST_READOUT: binding result

anti-GPRC5D chimeric antibody 2F1 (antibody, V domains shown) VH: EVLLQQSGPELVKPGTSMKISCKASGYSFTGYTMNWVKQRHGKNLEWIGLINPYNGGTRYNQKFKGRATLTVDKSSSTAYMELLSLTSEDSAVYYCARWALRYGMDYWGQGTSVTVSS VL: DIVMTQSQKFMSTSVGDRVSVTCKASQNVGTNVAWYQQKPGHSPKALIYSASYRNSGVPDRFTGSGSGTDFTLTISNVQSEDLAEYFCQQYNSYLLTFGGGTKLELK	binds
anti-GPRC5D chimeric antibody 8C2 (antibody, V domains shown) VH: EVQLVESGGDLVKPGGSLKLSCAASGFTFSSYGMSWVRQTPDKRLEWVATISSGGSYTYYPDSVKGRFTISRDNAKNTLYLQMSSLKSEDTAMYYCARHGGSSSYVMDYWGQGTSVTVSS VL: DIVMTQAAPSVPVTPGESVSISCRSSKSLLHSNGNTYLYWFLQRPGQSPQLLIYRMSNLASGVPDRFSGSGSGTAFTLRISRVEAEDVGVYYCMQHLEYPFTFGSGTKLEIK	binds
anti-GPRC5D chimeric antibody 15H5 (antibody, V domains shown) VH: EVQLQQSGPELVKPGASVKMSCMASGYTFTSYVMYWVKQKPGQGLEWIGYINPYNDGTKYNEKFKGKATLTSDKSSSTAYMELSSLTSEDSAVYYCARGGMLTTRSLFVYWGHGTLVTVSA VL: DIQMTQSPSSLSASLGERVSLTCRASQEISGYLSWLQQKPDGTIKRLIYAASTLDSGVPKRFSGSRSGSDYSLTISSLESEDFADYYCLQYASYPPTYGGGTKLEIK	binds
